Data credit: patent US11566007B2

- measurementTarget: KRAS G12S (Homo sapiens (Human), UniProt P01116+P62937, G12S)
- Sequence (P01116-2 other isoform, or with tags, fused parts or gaps G12S): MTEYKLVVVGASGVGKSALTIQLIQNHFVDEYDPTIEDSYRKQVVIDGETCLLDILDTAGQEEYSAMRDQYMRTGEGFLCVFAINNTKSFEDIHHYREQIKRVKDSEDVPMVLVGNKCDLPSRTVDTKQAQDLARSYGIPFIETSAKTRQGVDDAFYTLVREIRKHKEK
- Sequence (P62937 whole entry): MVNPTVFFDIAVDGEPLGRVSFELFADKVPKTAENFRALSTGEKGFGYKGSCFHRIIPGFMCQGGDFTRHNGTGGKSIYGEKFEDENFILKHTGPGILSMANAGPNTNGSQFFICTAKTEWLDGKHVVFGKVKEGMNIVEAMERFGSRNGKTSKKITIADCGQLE
- assayText: Ras-Raf (BRAF RBD) disruption / FRET / MOA assay, KRAS G12S
- Assay type: biochemical
- conditionInfo: Ras-Raf disruption/FRET/MOA assay; class symbols; read-out: KRAS G12S FRET data IC50
readoutLabel: IC50

These recorded examples may help you get a feel for the data.
C=CC(=O)N1CC[C@H](C(=O)N(C)[C@H](C(=O)N[C@H]2CC3=NC=C(O3)c3ccc4c(c3)c(c(-c3cccnc3[C@H](C)OC)n4CC)CC(C)(C)COC(=O)[C@@H]3CCCN(N3)C2=O)C(C)C)C1 (atropisomer, axis not shown) [Example A331]	1000 to 10000 nM
C=CC(=O)N1CC[C@H](C(=O)N(C)[C@H](C(=O)N[C@H]2Cc3cc(O)cc(c3)-c3ccc4c(c3)c(c(-c3ccc5c(c3)CCN(C)C5)n4CC)CC(C)(C)COC(=O)[C@@H]3CCCN(N3)C2=O)C(C)C)C1 [Example A040]	1000 to 10000 nM
C=CC(=O)N1CC[C@H](C(=O)N(C)[C@H](C(=O)N[C@H]2Cc3cc(O)cc(c3)-c3ccc4c(c3)c(c(-c3c(C)cccc3C)n4CC)CC(C)(C)COC(=O)[C@@H]3CCCN(N3)C2=O)C(C)C)C1 [Example A226]	1000 to 10000 nM
C=CC(=O)N(C)C[C@@H]1CCN1C(=O)N(C)[C@H](C(=O)N[C@H]1Cc2nc(cs2)-c2ccc3c(c2)c(c(-c2cccnc2[C@H](C)OC)n3CC)CC(C)(C)COC(=O)[C@@H]2CCCN(N2)C1=O)C(C)C (atropisomer, axis not shown) [Example A390]	1000 to 10000 nM
C=CC(=O)N1CC[C@H](C(=O)N(C)[C@H](C(=O)N[C@H]2Cc3cc(O)cc(c3)-c3ccc4c(c3)c(c(-c3cn(C)nc3[C@H](C)OC)n4CC)CC(C)(C)COC(=O)[C@@H]3CCCN(N3)C2=O)C(C)C)C1 [Example A154]	100 to 1000 nM
CCn1c(-c2cccnc2[C@H](C)OC)c2c3cc(ccc31)-c1csc(n1)C[C@H](NC(=O)[C@H](C(C)C)N(C)C(=O)N1CCC3(CC1)CN(C(=O)/C=C/CN1CCCCC1)C3)C(=O)N1CCC[C@H](N1)C(=O)OCC(C)(C)C2 (atropisomer, axis not shown) [Example A670]	100 to 1000 nM
C=CC(=O)N1CC[C@H](C(=O)N(C)[C@H](C(=O)N[C@H]2Cc3cc(O)cc(c3)-c3ccc4c(c3)c(c(-c3cccc5c3COC5)n4CC)CC(C)(C)COC(=O)[C@@H]3CCCN(N3)C2=O)C(C)C)C1 [Example A227]	1000 to 10000 nM

Continue with the next compound.
Query :: Query: IC50; subject: C=CC(=O)N1CC[C@H](C(=O)N(C)[C@H](C(=O)N[C@H]2Cc3cc(ccn3)-c3ccc4c(c3)c(c(-c3cccnc3COC)n4CC)CC(C)(C)COC(=O)[C@@H]3CCCN(N3)C2=O)C(C)C)C1 [Example A136]
Result :: > 10000 nM

----------
Would you mind telling me the reported pIC50 of each entry?
- measurementTarget: KRAS G12S (Homo sapiens (Human), UniProt P01116+P62937, G12S)
- assayText: Ras-Raf (BRAF RBD) disruption / FRET / MOA assay, KRAS G12S
- Type: biochemical
- conditionInfo: Ras-Raf disruption/FRET/MOA assay; class symbols; read-out: KRAS G12S FRET data IC50
- Protocol: The purpose of this biochemical assay is to measure the ability of test compounds to facilitate ternary complex formation between a nucleotide-loaded Ras isoform and cyclophilin A; the resulting ternary complex disrupts binding to a BRAF^RBD construct, inhibiting Ras signaling through a RAF effector. Compound is present in plate wells as a 10-point 3-fold dilution series starting at a final concentration of 30 μM. […]
pIC50: −log10 of the molar value.

These recorded examples may help you get a feel for the data.
CCn1c(-c2cccnc2[C@H](C)OC)c2c3cc(ccc31)-c1cccc(c1)C[C@H](NC(=O)CCOC1CN(C(=O)C#CC(C)(C)N3CCC3)C1)C(=O)N1CCC[C@H](N1)C(=O)OCC(C)(C)C2 (atropisomer, axis not shown)	< 5.00
CC#CC(=O)N1CC(N(C)C(=O)N(C)[C@H](C(=O)N[C@H]2Cc3nc(cs3)-c3ccc4c(c3)c(c(-c3cccnc3[C@H](C)OC)n4CC)CC(C)(C)COC(=O)[C@@H]3CCCN(N3)C2=O)C(C)C)C1 (atropisomer, axis not shown)	6.00 to 7.00
C=CC(=O)N1CC[C@H](C(=O)N(C)[C@H](C(=O)N[C@H]2Cc3cccc(c3)-c3ccc4c(c3)c(c(-c3cccnc3[C@H](C)OC)n4CC(F)(F)F)CC(C)(C)COC(=O)[C@@H]3CCCN(N3)C2=O)C(C)C)C1 (atropisomer, axis not shown)	5.00 to 6.00
C=CC(=O)N1CC[C@H](C(=O)N(C)[C@H](C(=O)N[C@H]2Cc3cc(OC(=O)CN)cc(c3)-c3ccc4c(c3)c(c(-c3ccccc3CCOC)n4CC)CC(C)(C)COC(=O)[C@@H]3CCCN(N3)C2=O)C(C)C)C1	5.00 to 6.00

# return pIC50 for each item in the list
1. CCn1c(-c2cnccc2C(C)C)c2c3cc(ccc31)-c1cc(O)cc(c1)C[C@H](NC(=O)[C@H](C(C)C)N(C)C(=O)[C@H]1CCN(C(=O)C#CCN(C)C)C1)C(=O)N1CCC[C@H](N1)C(=O)OCC(C)(C)C2
2. CCn1c(-c2cccnc2[C@H](C)OC)c2c3cc(ccc31)N1CCO[C@@H](C[C@H](NC(=O)[C@H](C(C)C)N(C)C(=O)C3(F)CCN(C(=O)/C=C/CN(C)C)CC3)C(=O)N3CCC[C@H](N3)C(=O)OCC(C)(C)C2)C1 (atropisomer, axis not shown)
3. C=CC(=O)N1CC[C@H](C(=O)N(C)[C@H](C(=O)N[C@H]2Cc3cc(cc(C(F)F)c3)-c3ccc4c(c3)c(c(-c3cc(N5CCN(C)CC5)cnc3[C@H](C)OC)n4CC(F)(F)F)CC(C)(C)COC(=O)[C@@H]3CCCN(N3)C2=O)C(C)C)C1 (atropisomer, axis not shown)
4. C=CC(=O)N1C2CC1CN(C(=O)N(C)[C@H](C(=O)N[C@H]1Cc3nc(cs3)-c3ccc4c(c3)c(c(-c3cccnc3[C@H](C)OC)n4CC)CC(C)(C)COC(=O)[C@@H]3CCCN(N3)C1=O)C(C)C)C2
5. C=C(OC)C(=O)N1CC2(CCN(C(=O)N(C)[C@H](C(=O)N[C@H]3Cc4nc(cs4)-c4ccc5c(c4)c(c(-c4cccnc4[C@H](C)OC)n5CC)CC(C)(C)COC(=O)[C@@H]4CCCN(N4)C3=O)C(C)C)CC2)C1 (atropisomer, axis not shown)

Result ::
["6.00 to 7.00", "5.00 to 6.00", "6.00 to 7.00", "6.00 to 7.00", "6.00 to 7.00"]

----------
Would you mind telling me the reported pIC50 of each entry?
- measurementTarget: KRAS G12S (Homo sapiens (Human), UniProt P01116+P62937, G12S)
- assayText: Ras-Raf (BRAF RBD) disruption / FRET / MOA assay, KRAS G12S
- Assay type: biochemical
- conditionInfo: Ras-Raf disruption/FRET/MOA assay; class symbols; read-out: KRAS G12S FRET data IC50
pIC50: −log10 of the molar value.

These recorded examples may help you get a feel for the data.
CCn1c(-c2cccnc2[C@H](C)OC)c2c3cc(ccc31)-c1cccc(c1)C[C@H](NC(=O)[C@H](C(C)C)N1CC[C@]3(CCN(C(=O)C#CC(C)(C)N(C)C)C3)C1=O)C(=O)N1CCC[C@H](N1)C(=O)OCC(C)(C)C2 (atropisomer, axis not shown) [Example A534]	5.00 to 6.00
CO[C@@H](C)c1ncccc1-c1c2c3cc(ccc3n1CC(F)(F)F)-c1csc(n1)C[C@H](NC(=O)CCOC1CN(C(=O)C#CC(C)(C)N(C)C)C1)C(=O)N1CCC[C@H](N1)C(=O)OCC(C)(C)C2 (atropisomer, axis not shown) [Example A380]	5.00 to 6.00
C=CC(=O)N1CC[C@H](N(C)C(=O)N(C)[C@H](C(=O)N[C@H]2Cc3nc(cs3)-c3ccc4c(c3)c(c(-c3cccnc3[C@H](C)OC)n4CC)CC(C)(C)COC(=O)[C@@H]3CCCN(N3)C2=O)C(C)C)C1 (atropisomer, axis not shown) [Example A728]	6.00 to 7.00

Query :: Query: pIC50; subject: CCn1c(-c2cncnc2)c2c3cc(ccc31)-c1csc(n1)C[C@H](NC(=O)[C@H](C(C)C)N(C)C(=O)[C@H]1CCN(C(=O)C#CCN3CCOCC3)C1)C(=O)N1CCC[C@H](N1)C(=O)OCC(C)(C)C2 [Example A177]
Result :: < 5.00
